Biological target: human CB1R (hCB1R) (Homo sapiens, UniProt P21554)
Construct: host or cells: CHO-K1 (PathHunter βarrestin2 line)
Sequence (P21554 whole entry): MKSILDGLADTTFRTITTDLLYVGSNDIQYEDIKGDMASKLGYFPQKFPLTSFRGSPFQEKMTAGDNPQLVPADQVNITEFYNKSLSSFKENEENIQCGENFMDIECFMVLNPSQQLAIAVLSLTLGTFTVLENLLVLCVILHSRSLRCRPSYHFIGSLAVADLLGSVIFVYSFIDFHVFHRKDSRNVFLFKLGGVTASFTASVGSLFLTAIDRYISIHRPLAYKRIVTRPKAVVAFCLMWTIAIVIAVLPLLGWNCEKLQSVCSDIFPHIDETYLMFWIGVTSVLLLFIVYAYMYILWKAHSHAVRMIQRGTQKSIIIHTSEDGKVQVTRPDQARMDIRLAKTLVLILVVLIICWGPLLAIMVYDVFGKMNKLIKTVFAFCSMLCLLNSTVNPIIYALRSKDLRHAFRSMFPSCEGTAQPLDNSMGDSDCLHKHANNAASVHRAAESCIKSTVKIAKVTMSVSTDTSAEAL
Test: HitHunter cAMP inhibition assay in hCB1R CHO-K1 cells (10 µM forskolin)
Assay type: cell-based
Settings: 100 nM CP55,940 + compound, value (95% CI), Figure 3C; read-out: EC50 (nM) 95% C.I., cAMP inhibition as PAM
measured-quantity: EC50 (nM)
Report only the number, with the unit nM understood.

- molecule: "O=[N+]([O-])C[C@@H](c1ccccc1F)c1c(-c2cccc(F)c2)[nH]c2cc(F)ccc12"
  units: "nM"
  EC50: 8.6
- molecule: "O=[N+]([O-])C[C@@H](c1ccccc1F)c1c(-c2cccc(F)c2)[nH]c2c(F)cccc12"
  units: "nM"
  EC50: 1.8
- molecule: "O=[N+]([O-])CC(c1ccccc1F)c1c(-c2cccc(F)c2)[nH]c2c(F)cccc12 (stereo not shown)"
  units: "nM"
  EC50: 270

Prompt line: Using the record for O=[N+]([O-])CC(c1ccccc1F)c1c(-c2cccc(F)c2)[nH]c2cc(F)ccc12 (stereo not shown) , report its EC50.
Response line: 29

Hello, the source for this data is paper PMC9640980, in case you need it.
